- System: OVCAR-4
- Procedure details: NCI tumour cell line growth inhibition, 48 h
Activity calls are given as the source filed them. Cut-off read from the data, not from the text of the source: active = GI50 up to about 1.1 µM and inactive = higher.
Metric name: GI50

Form field GI50, entry COc1cc(C2c3cc4c(cc3OC(NN)C2C)OCO4)cc(OC)c1O (stereo not given) : 26.8 µM (inactive)

Sample O=C(O)CNc1cc(-c2ccccc2)nc(NCC(=O)O)n1 ; GI50 observed: > 100 µM (inactive)

====

- Test system: SR
- Procedure details: NCI tumour cell line growth inhibition, 48 h
Calls of active or inactive are those of the source. Rule as the data show it: active = GI50 up to about 1.1 µM and inactive = higher.
Measured GI50, listed per entry.

// below: answered molecules
Molecule	GI50
CC(=O)[C@]1(C)[C@H](C)O[C@](C)(CO)[C@H]1O[Si](C)(C)c1ccccc1	31.8 µM (inactive)
CN(C)C(=S)N1C(=S)N(c2ccccc2)C(=N/c2ccccc2)/C1=N\c1ccccc1	> 100 µM (inactive)
COC(=O)n1c(=O)n(-c2ccccc2)c(=O)n1C(=O)Nc1ccccc1	> 100 µM (inactive)
O=C(O)Cc1cc(O)c(CC(=O)O)cc1O	> 100 µM (inactive)
Fc1cccc(F)c1C1SCc2nc3cc4ccccc4cc3n21 (stereo not given)	17.5 µM (inactive)
CCC1(N=[N+]=[N-])C(=O)c2ccccc2N(C)C1=O (stereo not given)	> 100 µM (inactive)

For record COc1cc(N(Cc2ccc3nc(OC)c(OC)nc3c2)Cc2ccc3nc(OC)c(OC)nc3c2)cc(OC)c1OC the listed GI50 is > 50 µM (inactive)

response.value for CON(C)C(=O)C(C)NC(=O)OC(C)(C)C (stereo not given) (field: GI50) = > 100 µM (inactive)

Cc1noc(C)c1-n1nc2ccc3nonc3c2n1 yielded GI50 of > 100 µM (inactive)

The molecule listed as O=C1NC2(CCCC2)C2CCCCC12O (stereo not given) has a reported GI50 of > 100 µM (inactive)

====

- Test system: SF-295
- Procedure details: NCI tumour cell line growth inhibition, 48 h
Activity calls are given as the source filed them. Cut-off read from the data, not from the text of the source: active = GI50 up to about 1.1 µM and inactive = higher.
Metric name: GI50

Compound	GI50
[O-][S+]1CSSC1	20.7 µM (inactive)

For record C=C1C[C@@H](O)[C@@H](Br)C(C)(C)[C@]12CCC(C)(Cl)C(Br)C2 (stereo partly drawn) the listed GI50 is 30.6 µM (inactive)

// sample O[C@@]12Cc3c([nH]c4ccccc34)[C@@H]3Oc4c(-c5ccccc5)ccc5c4[C@@]31CCN(CC1CC1)[C@@H]2C5 , its GI50 was 1.69 µM (inactive)

Form field GI50, entry O=C(O)CC(NC(=O)/C(=C/c1ccccc1)NC(=O)c1ccccc1)C(=O)O (stereo not drawn) : > 100 µM (inactive)

The measured GI50 associated with Nc1ccc2c(c1)C(=O)N(O)C2=O reads > 100 µM (inactive)

Memo: Cc1ccsc1/C=N/Nc1nc2ccccc2s1 , reported GI50: 10.6 µM (inactive)

The compound listed as COC(=O)c1c(CC(Cc2ccc3c(c2)CCCC3)C(=O)OC)ccc2c1CCCC2 (stereo not drawn) has a reported GI50 of > 100 µM (inactive)

Lab book: GI50 of CC1(O)C(=O)OC2CC([C@]3(O)CCC4[C@@H]5C[C@H]6O[C@]67[C@@H](O)C=CC(=O)[C@]7(C)C5CC[C@@]43C)C1(C)C2 (stereo partly drawn) noted as 34.6 µM (inactive)

FYI, the data here is from ChEMBL document CHEMBL1201862.
